Target: T1, CAPRIN-1 protein expressed on the membrane surface of human cancer cells (human, UniProt Q14444 2-709)
T1 sequence (looked up): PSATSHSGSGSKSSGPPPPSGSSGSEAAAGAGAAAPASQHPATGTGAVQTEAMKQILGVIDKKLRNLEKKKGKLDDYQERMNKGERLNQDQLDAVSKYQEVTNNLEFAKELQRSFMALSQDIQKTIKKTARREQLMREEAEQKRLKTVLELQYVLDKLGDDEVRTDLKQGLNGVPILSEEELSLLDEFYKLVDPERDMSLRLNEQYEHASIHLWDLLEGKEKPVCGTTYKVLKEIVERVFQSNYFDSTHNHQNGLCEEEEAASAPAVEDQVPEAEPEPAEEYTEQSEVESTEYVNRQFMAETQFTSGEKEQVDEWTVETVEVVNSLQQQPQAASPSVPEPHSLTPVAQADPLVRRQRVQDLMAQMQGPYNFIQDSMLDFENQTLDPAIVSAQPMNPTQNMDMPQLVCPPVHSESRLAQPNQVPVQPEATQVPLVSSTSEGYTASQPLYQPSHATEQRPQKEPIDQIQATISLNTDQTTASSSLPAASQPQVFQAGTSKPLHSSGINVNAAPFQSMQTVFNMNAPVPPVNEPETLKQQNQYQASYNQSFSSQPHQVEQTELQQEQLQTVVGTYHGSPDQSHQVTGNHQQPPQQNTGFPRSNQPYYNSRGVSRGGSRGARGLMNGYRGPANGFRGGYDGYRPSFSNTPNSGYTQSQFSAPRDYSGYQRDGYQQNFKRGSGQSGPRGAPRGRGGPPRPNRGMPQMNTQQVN
Test: cell-based or functional assay
Kindly state ADCC cytotoxic activity (51Cr release) on RD-ES for each of the entries shown.

Solved entries (count: 2):
BINDER: humanized antibody #5 (antibody, V domains shown) VH: EVQLVESGGGLVQPGGSLRLSCAASGFSLSSHSLGWVRQAPGKGLEWIGDIRSGGSAYYANWAKGRFTISRDNSKNTLYLQMNSLRAEDTAVYFCTRTNGPSDLTNRLDLWGQGTLVTVSS VL: EQVLTQSPSSLSASVGDRVTINCQASQSLYNNENLAWFQQKPGKVPKRLIYGASTLASGVSSRFSGSGSGTEFTLTISNLQPEDFAIYYCLGEFSCGSADCFAFGGGTKVEIK
RESULT: ≥ 40%

BINDER: humanized antibody #0 (antibody, V domains shown) VH: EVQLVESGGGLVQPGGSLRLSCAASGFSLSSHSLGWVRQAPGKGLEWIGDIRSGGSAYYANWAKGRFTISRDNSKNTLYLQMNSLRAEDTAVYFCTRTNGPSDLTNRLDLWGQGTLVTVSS VL: AIQMTQSPSSLSASVGDRVTINCQASQSLYNNENLAWFQQKPGKAPKRLIYGASTLASGVSSRFSGSGSGTDFTLTISSLQPEDFAIYYCLGEFSCGSADCFAFGGGTKVEIK
RESULT: ≥ 31%

Proceeding to the next binder to report its ADCC cytotoxic activity (51Cr release) on RD-ES.
Task item: Supply reported ADCC cytotoxic activity (51Cr release) on RD-ES belonging to this binder: humanized antibody #8 (antibody, V domains shown) VH: QSLVESGGGLVQPGGSLRLSCAASGFSLSSHSLGWVRQAPGKGLEWIGDIRSGGSAYYANWAKGRFTISRTSSKNTVYLQMNSLRAEDTAVYFCTRTNGPSDLTNRLDLWGQGTLVTVSS VL: QVLTQSPSSLSASVGDRVTINCQASQSLYNNENLAWFQQKPGKVPKRLIYGASTLASGVSSRFSGSGSGTEFTLTISSLQCEDFAIYYCLGEFSCGSADCFAFGGGTKVEIK
Reply: ≥ 31%
